- Experimental System: T1, Biotinylated human TSLP (human, biotinylated)
- T1 construct: also called hTSLP; thymic stromal lymphopoietin
- T1 sequence (chain, as listed by the source limits assumed): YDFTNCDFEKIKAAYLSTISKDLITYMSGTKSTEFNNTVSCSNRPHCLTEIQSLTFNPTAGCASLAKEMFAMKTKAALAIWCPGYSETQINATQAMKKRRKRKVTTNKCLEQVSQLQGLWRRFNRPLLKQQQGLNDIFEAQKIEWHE
- Assay Summary: SPR, biotinylated hTSLP on streptavidin chip
*1 amine or outer side, *2 acyl side, *3 side chain or, on linkers, in order; H or OH if unused. Bridges are numbered along the chain shown (N, C = ends). Where no end group is shown, it is not given here. TATA = O=C(CC[*:1])N1CN(C(=O)CC[*:2])CN(C(=O)CC[*:3])C1
Listing of recorded Kd by entry.

Examples with answers:
Ac-CQWLEDCWAGFC (linker 1-7-12 via TATA) [Example 149]; 1100 nM
CQWLFDCWRGXC (N-term acetyl; CQWLFDCWRG[4-FPhe]C as printed; C-terminal -COOH; 3 Cys on TATA) [Example 39]; 21 nM

-- ask # input binder: CQWLEDCWRGXC (not fully specified; N-term acetyl; CQWLEDCWRG[3-MePhe]C as printed; 3 Cys on TATA) [Example 74] ; wanted: its Kd
-- reply 91 nM
